Each item that follows carries a reported fold change of affinity.
assay_system: T1, Human CD3eg linker (human)
T1 construct: Single chain: epsilon and gamma subunits of human CD3 joined by a 29-mer linker, Flag-tag at the C-terminus; also called recombinant human CD3
T1 chain: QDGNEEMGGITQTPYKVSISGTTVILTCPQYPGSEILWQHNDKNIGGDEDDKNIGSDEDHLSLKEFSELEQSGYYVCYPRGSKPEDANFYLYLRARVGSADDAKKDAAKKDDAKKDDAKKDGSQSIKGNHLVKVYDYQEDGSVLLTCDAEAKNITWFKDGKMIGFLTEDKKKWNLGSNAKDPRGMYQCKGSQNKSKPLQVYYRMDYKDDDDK
procedure_text: Biacore SPR, vs template H183/L072
Record the value in fold, omitting the unit from your answer.

binder="H183/L072 VH A56Y (antibody, name in Kabat numbering, V domains shown) VH: QVQLVESGGGLVQPGRSLRLSCAASGFTFSNAWMHWVRQAPGKGLEWVAQIKDKGNAYYAYYAPSVKGRFTISRDDSKNSIYLQMNSLKTEDTAVYYCHYVHYASASTVLPAFGVDAWGQGTTVTVSS VL: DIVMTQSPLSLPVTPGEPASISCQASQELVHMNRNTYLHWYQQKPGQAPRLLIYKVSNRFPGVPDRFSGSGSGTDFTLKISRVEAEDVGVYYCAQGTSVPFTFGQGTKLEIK" test_value=0.7
binder="H183/L072 VH A57T (antibody, name in Kabat numbering, V domains shown) VH: QVQLVESGGGLVQPGRSLRLSCAASGFTFSNAWMHWVRQAPGKGLEWVAQIKDKGNAYATYYAPSVKGRFTISRDDSKNSIYLQMNSLKTEDTAVYYCHYVHYASASTVLPAFGVDAWGQGTTVTVSS VL: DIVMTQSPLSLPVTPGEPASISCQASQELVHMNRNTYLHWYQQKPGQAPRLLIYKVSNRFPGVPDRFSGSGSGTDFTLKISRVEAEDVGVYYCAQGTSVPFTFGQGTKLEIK" test_value=1.3
binder="H183/L072 VH K52T (antibody, name in Kabat numbering, V domains shown) VH: QVQLVESGGGLVQPGRSLRLSCAASGFTFSNAWMHWVRQAPGKGLEWVAQITDKGNAYAAYYAPSVKGRFTISRDDSKNSIYLQMNSLKTEDTAVYYCHYVHYASASTVLPAFGVDAWGQGTTVTVSS VL: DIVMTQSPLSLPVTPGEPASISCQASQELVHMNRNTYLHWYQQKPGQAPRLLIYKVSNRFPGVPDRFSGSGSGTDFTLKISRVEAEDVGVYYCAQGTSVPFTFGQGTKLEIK" test_value=0.5

Task: Quick one: fold change of affinity for H183/L072 VH Y59S (antibody, name in Kabat numbering, V domains shown) VH: QVQLVESGGGLVQPGRSLRLSCAASGFTFSNAWMHWVRQAPGKGLEWVAQIKDKGNAYAAYSAPSVKGRFTISRDDSKNSIYLQMNSLKTEDTAVYYCHYVHYASASTVLPAFGVDAWGQGTTVTVSS VL: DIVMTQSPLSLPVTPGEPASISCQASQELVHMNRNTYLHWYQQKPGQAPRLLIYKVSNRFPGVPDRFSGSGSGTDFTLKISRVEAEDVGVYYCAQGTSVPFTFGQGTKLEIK ?
Result: 1.1

Task: Can you check H183/L072 VH W33M (antibody, name in Kabat numbering, V domains shown) VH: QVQLVESGGGLVQPGRSLRLSCAASGFTFSNAMMHWVRQAPGKGLEWVAQIKDKGNAYAAYYAPSVKGRFTISRDDSKNSIYLQMNSLKTEDTAVYYCHYVHYASASTVLPAFGVDAWGQGTTVTVSS VL: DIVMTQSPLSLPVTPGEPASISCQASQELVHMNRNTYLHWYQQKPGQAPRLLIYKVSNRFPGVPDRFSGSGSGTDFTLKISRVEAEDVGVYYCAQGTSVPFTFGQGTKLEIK next?
Result: 0
